Ref: patent US10131652B2

- System: small-flower umbrella sedge (Cyperus difformis)
- method: Test C flooded paddy test plant response
- Assay type: in vivo
- assay_context: Flood, 250 g ai/ha; scale of 0 to 100 where 0 is no effect and 100 is complete control; 13 to 15 days
Note to self: values exactly at 80 are t. So Sedge, Umbrella plant response rating at or above 80 is t, below is f.

Check out these entries, answers already filled in.
molecule="FCc1cc(-c2c(F)cccc2Oc2ncc(Cl)cn2)no1 [Compound 57]" experimental_system="small-flower umbrella sedge (Cyperus difformis)" discrete_label=f
molecule="FC(F)Oc1cccc(Oc2ncc(Cl)cn2)c1-c1cc(C(F)F)no1 [Compound 132]" experimental_system="small-flower umbrella sedge (Cyperus difformis)" discrete_label=f
molecule="Clc1cnc(Oc2ccccc2-c2ccc(Cl)nn2)nc1 [Compound 186]" experimental_system="small-flower umbrella sedge (Cyperus difformis)" discrete_label=f
molecule="CC(C)n1nc(C(F)(F)F)cc1-c1c(C#N)cccc1Oc1ncc(Cl)cn1 [Compound 90]" experimental_system="small-flower umbrella sedge (Cyperus difformis)" discrete_label=f
molecule="FC(F)c1cc(-c2ccccc2Oc2ncc(Cl)cn2)ncn1 [Compound 184]" experimental_system="small-flower umbrella sedge (Cyperus difformis)" discrete_label=f

Incoming: Textbook exercise: given the entry Fc1ccc(-c2cc(C(F)(F)F)no2)c(Oc2ncc(Cl)cn2)c1 [Compound 124] , state whether its Sedge, Umbrella plant response rating is greater than or equal to 80.
Outgoing: t

Incoming: Textbook exercise: given the entry FC(F)Oc1cccc(Oc2ncc(Cl)cn2)c1-c1cc(C(F)F)on1 [Compound 131] , state whether its Sedge, Umbrella plant response rating is greater than or equal to 80.
Outgoing: t

Incoming: Textbook exercise: given the entry Cc1csc(-c2c(C#N)cccc2Oc2ncc(Cl)cn2)c1 [Compound 238] , state whether its Sedge, Umbrella plant response rating is greater than or equal to 80.
Outgoing: f

Incoming: Textbook exercise: given the entry COc1cccc(Oc2ncc(Cl)cn2)c1-c1cc(C)no1 [Compound 110] , state whether its Sedge, Umbrella plant response rating is greater than or equal to 80.
Outgoing: f

Incoming: Textbook exercise: given the entry CCOC(=O)c1cc(-c2ccccc2Oc2ncc(Cl)cn2)on1 [Compound 225] , state whether its Sedge, Umbrella plant response rating is greater than or equal to 80.
Outgoing: f

----------
- Test system: corn (Zea mays)
- method: Test B pre-/postemergence plant response
- Format: in vivo
- assay_context: 125 g ai/ha, postemergence; 0 to 100 scale, 0 no effect, 100 complete control
- From the text: […]
readout_label: Plant response rating, Corn
Returns: the value as a bare number; no unit string appended.

Illustrative cases are given below, each with its answer.
smiles_data=COc1cccc(Oc2ncc(F)cn2)c1-c1cc(C)no1 readout_label="Plant response rating, Corn" data_value=10
smiles_data=Fc1cnc(Oc2cccc(F)c2-c2cnccn2)nc1 readout_label="Plant response rating, Corn" data_value=10
smiles_data=FC(F)Oc1cccc(Oc2ncc(Cl)cn2)c1-c1cc(C(F)F)on1 readout_label="Plant response rating, Corn" data_value=40
smiles_data=Cn1nnc(-c2ccccc2Oc2ncc(Br)cn2)n1 readout_label="Plant response rating, Corn" data_value=0
smiles_data=Clc1ccc(-c2ccc(Br)cc2Oc2ncc(Cl)cn2)nc1 readout_label="Plant response rating, Corn" data_value=0

Assay corn (Zea mays), sample Cn1ccc(-c2ccccc2Oc2ncc(Cl)cn2)n1 , Plant response rating, Corn read: 0

Assay corn (Zea mays), sample COc1cccc(Oc2ncc(Cl)cn2)c1-c1cc(C(F)(F)F)on1 , Plant response rating, Corn read: 20
